target: CYP17A1 N52Y (Homo sapiens, UniProt P05093, N52Y); assay: X-ray co-crystal structure, […] Å
Sequence (P05093 20-508 N52Y): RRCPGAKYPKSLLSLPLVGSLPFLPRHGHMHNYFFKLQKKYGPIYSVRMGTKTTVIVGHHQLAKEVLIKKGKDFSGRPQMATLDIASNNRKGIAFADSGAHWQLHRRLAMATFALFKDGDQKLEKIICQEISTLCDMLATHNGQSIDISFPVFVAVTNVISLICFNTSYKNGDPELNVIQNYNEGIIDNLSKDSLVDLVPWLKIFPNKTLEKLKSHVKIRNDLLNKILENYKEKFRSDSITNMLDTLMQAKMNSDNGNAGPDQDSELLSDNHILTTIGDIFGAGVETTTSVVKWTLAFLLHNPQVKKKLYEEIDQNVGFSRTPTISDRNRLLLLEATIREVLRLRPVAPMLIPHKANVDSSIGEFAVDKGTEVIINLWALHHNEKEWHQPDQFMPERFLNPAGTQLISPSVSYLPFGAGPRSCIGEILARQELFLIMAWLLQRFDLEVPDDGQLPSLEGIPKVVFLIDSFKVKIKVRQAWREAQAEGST
pIC50: −log10 of the molar value.
value_kind: pIC50

INSERT INTO results (test_smiles, system_under_test, observed_measurement) VALUES
  ('C[C@]12CC[C@H](O)CC1=CC[C@@H]1[C@@H]2CC[C@]2(C)C(c3cccnc3)=CC[C@@H]12', 'CYP17A1 N52Y (Homo sapiens, UniProt P05093, N52Y)', 7.29);

---

Sequence of the target: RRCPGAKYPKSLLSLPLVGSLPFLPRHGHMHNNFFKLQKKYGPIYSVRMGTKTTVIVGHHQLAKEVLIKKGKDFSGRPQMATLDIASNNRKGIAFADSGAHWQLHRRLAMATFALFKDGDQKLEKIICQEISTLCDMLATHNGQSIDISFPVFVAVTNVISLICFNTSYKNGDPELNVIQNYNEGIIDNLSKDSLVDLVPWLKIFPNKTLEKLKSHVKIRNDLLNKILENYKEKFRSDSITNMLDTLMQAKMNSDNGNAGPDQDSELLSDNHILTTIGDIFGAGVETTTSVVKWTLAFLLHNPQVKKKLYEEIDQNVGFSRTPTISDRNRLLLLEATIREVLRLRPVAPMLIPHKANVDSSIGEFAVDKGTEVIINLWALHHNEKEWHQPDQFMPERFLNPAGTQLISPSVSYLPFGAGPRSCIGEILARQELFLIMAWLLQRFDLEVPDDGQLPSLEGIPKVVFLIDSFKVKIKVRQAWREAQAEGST
value_kind: IC50 (nM)

INSERT INTO results (compound, observed_measurement) VALUES
  ('C[C@]12CC[C@H](O)CC1=CC[C@@H]1[C@@H]2CC[C@]2(C)C(c3cccnc3)=CC[C@@H]12 [abiraterone]', 69);
